ASSAY TEXT: xn = mol fraction of the nth substance listed
APPLIED CONDITIONS: 308.15 K; 100 kPa; Liquid; Vibrating tube method; x1 = 0.9
ASSAY ENDPOINT: mass density (kg/m3)

| MOLECULE | mass density [kg/m3] |
| --- | --- |
| CN1CCC[C@H]1c1cccnc1 [(-)-3-(N-methylpyrrolidino)pyridine] + CCC(C)O | 987.783 |
| CN1CCC[C@H]1c1cccnc1 [(-)-3-(N-methylpyrrolidino)pyridine] + CC(O)CO | 1000.64 |
| CN1CCC[C@H]1c1cccnc1 [(-)-3-(N-methylpyrrolidino)pyridine] + OCCCO | 1002.55 |
| CN1CCC[C@H]1c1cccnc1 [(-)-3-(N-methylpyrrolidino)pyridine] + CCCCO | 987.806 |

* * *

ASSAY TEXT: xn = mol fraction of the nth substance listed
APPLIED CONDITIONS: 303.15 K; 100 kPa; Liquid; Vibrating tube method; x1 = 0.3
ASSAY ENDPOINT: mass density (kg/m3)

| COMPOUND | RESULT UNIT | mass density |
| --- | --- | --- |
| CN1CCC[C@H]1c1cccnc1 [(-)-3-(N-methylpyrrolidino)pyridine] + CCCCO | kg/m3 | 893.14 |
| CN1CCC[C@H]1c1cccnc1 [(-)-3-(N-methylpyrrolidino)pyridine] + OCCCO | kg/m3 | 1033.78 |
| CN1CCC[C@H]1c1cccnc1 [(-)-3-(N-methylpyrrolidino)pyridine] + CCC(C)O | kg/m3 | 889.965 |
| CN1CCC[C@H]1c1cccnc1 [(-)-3-(N-methylpyrrolidino)pyridine] + CC(O)CO | kg/m3 | 1022.19 |

* * *

ASSAY TEXT: refractive index (Na D-line) (dimensionless)
APPLIED CONDITIONS: 318.15 K; 100 kPa; Liquid; Standard Abbe refractometry
ASSAY ENDPOINT: refractive index

| COMPOUND | refractive index |
| --- | --- |
| CCCCO [butan-1-ol] | 1.38896 |
| CCC(C)O (stereo not given) [butan-2-ol] | 1.38571 |
| CC(O)CO (stereo not given) [1,2-propanediol] | 1.42429 |
| OCCCO [propan-1,3-diol] | 1.4324 |
| CN1CCC[C@H]1c1cccnc1 [(-)-3-(N-methylpyrrolidino)pyridine] | 1.51592 |

* * *

APPLIED CONDITIONS: 298.15 K; 100 kPa; Liquid; Vibrating tube method
ASSAY ENDPOINT: mass density (kg/m3)

| COMPOUND | RESULT |
| --- | --- |
| OCCCO | 1049.9 |
| CCC(C)O (stereo not given) | 803.049 |
| CCCCO | 805.995 |
| CN1CCC[C@H]1c1cccnc1 [(-)-3-(N-methylpyrrolidino)pyridine] | 1006.16 |
| CC(O)CO (stereo not given) | 1032.62 |

* * *

APPLIED CONDITIONS: 318.15 K; 100 kPa; Liquid; Vibrating tube method
ASSAY ENDPOINT: mass density (kg/m3)

| COMPOUND | RESULT |
| --- | --- |
| CCCCO | 790.429 |
| CC(O)CO (stereo not given) | 1017.57 |
| OCCCO | 1037.33 |
| CCC(C)O (stereo not given) | 785.636 |
| CN1CCC[C@H]1c1cccnc1 [(-)-3-(N-methylpyrrolidino)pyridine] | 989.984 |

Measured values drawn from the NIST ThermoML archive (doi:10.1016/j.jct.2016.07.005) for this set.
